Listing: pKi of selected binders
Target: T1, human plasma Kallikrein (human, UniProt P03952 20-638, limits assumed)
T1 construct: also called hPK; human PK
T1 sequence (P03952 20-638 limits assumed): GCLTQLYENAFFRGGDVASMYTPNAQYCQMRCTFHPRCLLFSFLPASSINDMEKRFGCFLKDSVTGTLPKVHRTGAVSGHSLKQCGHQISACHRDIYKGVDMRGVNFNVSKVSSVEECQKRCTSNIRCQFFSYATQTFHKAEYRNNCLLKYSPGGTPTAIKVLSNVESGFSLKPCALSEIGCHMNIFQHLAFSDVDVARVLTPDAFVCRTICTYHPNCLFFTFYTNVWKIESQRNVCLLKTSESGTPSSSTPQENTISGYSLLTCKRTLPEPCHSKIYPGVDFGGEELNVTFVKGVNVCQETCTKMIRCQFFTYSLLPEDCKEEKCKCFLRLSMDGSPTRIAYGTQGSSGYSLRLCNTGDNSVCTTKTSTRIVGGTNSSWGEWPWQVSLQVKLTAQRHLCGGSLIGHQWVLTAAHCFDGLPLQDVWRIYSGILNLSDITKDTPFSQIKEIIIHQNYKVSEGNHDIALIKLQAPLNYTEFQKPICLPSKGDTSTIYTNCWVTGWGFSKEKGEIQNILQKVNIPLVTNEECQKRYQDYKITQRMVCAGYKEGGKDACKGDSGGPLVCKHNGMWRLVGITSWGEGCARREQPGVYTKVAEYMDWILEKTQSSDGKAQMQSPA
Assay: enzyme inhibition assay
Numbered stars: 1 amine (or outer) side, 2 acyl side, 3 side chain; on linkers, the order of the positions; unused ones are H or OH. Bridge positions count the residues as written; N and C are the ends. Square brackets hold non-standard residues; d marks the D form. TBMB = c1c(C[*:1])cc(C[*:3])cc1C[*:2]; 3Pal = N[C@@H](Cc1cccnc1)C(=O)O; 4Pal = N[C@@H](Cc1ccncc1)C(=O)O
Remember, pKi is on a log scale: it is -log10 of the molar concentration.

Ac-CSFP[4Pal]RCLHQDLC-NH2 (linker 1-7-13 via TBMB; SMILES CC(=O)N[C@H]1CSCc2cc3cc(c2)CSC[C@H](NC(=O)[C@H](CCCNC(=N)N)NC(=O)[C@H](Cc2ccncc2)NC(=O)[C@@H]2CCCN2C(=O)[C@H](Cc2ccccc2)NC(=O)[C@H](CO)NC1=O)C(=O)N[C@@H](CC(C)C)C(=O)N[C@@H](Cc1c[nH]cn1)C(=O)N[C@@H](CCC(N)=O)C(=O)N[C@@H](CC(=O)O)C(=O)N[C@@H](CC(C)C)C(=O)N[C@H](C(N)=O)CSC3) [Ac-(06-34-18) Phe2 4Pal4]; 8.66
Ac-CSFP[3Pal]RCLHQDLC-NH2 (linker 1-7-13 via TBMB) [Ac-(06-34-18) Phe2 3Pal4]; 8.59
Ac-CSFPYRCLHQDLC-NH2 (linker 1-7-13 via TBMB; SMILES CC(=O)N[C@H]1CSCc2cc3cc(c2)CSC[C@H](NC(=O)[C@H](CCCNC(=N)N)NC(=O)[C@H](Cc2ccc(O)cc2)NC(=O)[C@@H]2CCCN2C(=O)[C@H](Cc2ccccc2)NC(=O)[C@H](CO)NC1=O)C(=O)N[C@@H](CC(C)C)C(=O)N[C@@H](Cc1c[nH]cn1)C(=O)N[C@@H](CCC(N)=O)C(=O)N[C@@H](CC(=O)O)C(=O)N[C@@H](CC(C)C)C(=O)N[C@H](C(N)=O)CSC3, also called Ac-(06-34-18) FPYR; Ac-(06-34-18) Phe2 Tyr4) [Ac-06-34-18(TMB)-NH2 Phe2Tyr4]; 9.34

INPUT: Tell me the measured pKi of Ac-CS[4Pal]PYRCLHQDLC-NH2 (linker 1-7-13 via TBMB) [Ac-(06-34-18) 4Pal2 Tyr4] , please.
OUTPUT: 8.45
